Tested on: PC-3_[JPC-3] (Lung Adenocarcinoma);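 also: after 72 h of two-drug dosing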
Experiment: Bliss excess, mean over the matrix (fraction); higher = more synergy
Tag: yes if measured Bliss excess is not below -0.03, no if it is.

INSERT INTO assay_data (molecule, assigned_class) VALUES
  ('C[C@@H](c1ccc2nccn2c1)n1nnc2ncc(-c3cnn(C)c3)nc21 [Savolitinib] + CC1(C)CCC(CN2CCN(c3ccc(C(=O)NS(=O)(=O)c4ccc(NCC5CCOCC5)c([N+](=O)[O-])c4)c(Oc4cnc5[nH]ccc5c4)c3)CC2)=C(c2ccc(Cl)cc2)C1 [Venetoclax] (first compound max 1 µM, 7x7, partner max 1 µM)', 'no'),
  ('COc1cccc(OCCCN)c1-c1cc(Nc2cnc(C#N)cn2)n[nH]1 [Prexasertib] + O=C(c1cc(Cc2n[nH]c(=O)c3ccccc23)ccc1F)N1CCN(C(=O)C2CC2)CC1 [Olaparib] (first compound max 1 µM, 7x7, partner max 10 µM)', 'no'),
  ('Cc1cc2ncnn2cc1Nc1ncc2c(n1)n(C1CCOCC1)c(=O)n2C [AZD7648] + O=C(c1cc(Cc2n[nH]c(=O)c3ccccc23)ccc1F)N1CCN(C(=O)C2CC2)CC1 [Olaparib] (first compound max 10 µM, 7x7, partner max 10 µM)', 'yes'),
  ('COc1cccc(OCCCN)c1-c1cc(Nc2cnc(C#N)cn2)n[nH]1 [Prexasertib] + C[C@@H]1COCCN1C2=NC(=NC(=C2)C3(CC3)[S@](=N)(=O)C)C4=C5C=CNC5=NC=C4 [AZD6738] (first compound max 1 µM, 7x7, partner max 10 µM)', 'yes'),
  ('CN(CCO)CC[C@H](CSc1ccccc1)Nc1ccc(S(=O)(=O)NC(=O)c2ccc(N3CCC([C@@H](O)c4ccccc4-c4ccc(Cl)cc4)CC3)cc2)cc1S(=O)(=O)C(F)(F)F [AZD4320] + C1CN(CCC1(C(=O)N[C@@H](CCO)C2=CC=C(C=C2)Cl)N)C3=NC=NC4=C3C=CN4 [Capivasertib] (first compound max 1 µM, 7x7, partner max 3 µM)', 'no');

Problem: Evaluate CN(CCO)CC[C@H](CSc1ccccc1)Nc1ccc(S(=O)(=O)NC(=O)c2ccc(N3CCC([C@@H](O)c4ccccc4-c4ccc(Cl)cc4)CC3)cc2)cc1S(=O)(=O)C(F)(F)F [AZD4320] + Cc1cc2ncnn2cc1Nc1ncc2c(n1)n(C1CCOCC1)c(=O)n2C [AZD7648] (first compound max 1 µM, 7x7, partner max 10 µM) : Bliss excess at minimum -0.03?
Result: no

Problem: Evaluate CN(CCO)CC[C@H](CSc1ccccc1)Nc1ccc(S(=O)(=O)NC(=O)c2ccc(N3CCC([C@@H](O)c4ccccc4-c4ccc(Cl)cc4)CC3)cc2)cc1S(=O)(=O)C(F)(F)F [AZD4320] + CS(=O)(=O)CCNCc1ccc(-c2ccc3ncnc(Nc4ccc(OCc5cccc(F)c5)c(Cl)c4)c3c2)o1 [Lapatinib] (first compound max 1 µM, 7x7, partner max 10 µM) : Bliss excess at minimum -0.03?
Result: yes

Problem: Evaluate NC1(C(=O)N[C@@H](CCO)c2ccc(Cl)cc2)CCN(c2ncnc3[nH]ccc23)CC1 [Capivasertib] + CC(C)n1c(=O)n(C)c2cnc3cc(F)c(-c4ccc(OCCCN5CCCCC5)nc4)cc3c21 [AZD1390] (first compound max 10 µM, 7x7, partner max 0.3 µM) : Bliss excess at minimum -0.03?
Result: no

Problem: Evaluate CN(CCO)CC[C@H](CSc1ccccc1)Nc1ccc(S(=O)(=O)NC(=O)c2ccc(N3CCC([C@@H](O)c4ccccc4-c4ccc(Cl)cc4)CC3)cc2)cc1S(=O)(=O)C(F)(F)F [AZD4320] + CCN(CCO)CCCOc1ccc2c(Nc3cc(CC(=O)Nc4cccc(F)c4)[nH]n3)ncnc2c1 [AZD2811] (first compound max 1 µM, 7x7, partner max 1 µM) : Bliss excess at minimum -0.03?
Result: no

Problem: Evaluate Cc1c2c(nn1C)CSCc1cc(n(C)n1)CSc1cc(c3ccccc3c1)OCCCc1c(C(=O)O)n(C)c3c-2c(Cl)ccc13 [AZD5991] + C=CCn1c(=O)c2cnc(Nc3ccc(N4CCN(C)CC4)cc3)nc2n1-c1cccc(C(C)(C)O)n1 [AZD1775] (first compound max 1 µM, partner max 1 µM) : Bliss excess at minimum -0.03?
Result: yes

Problem: Evaluate CC1(C)CCC(CN2CCN(c3ccc(C(=O)NS(=O)(=O)c4ccc(NCC5CCOCC5)c([N+](=O)[O-])c4)c(Oc4cnc5[nH]ccc5c4)c3)CC2)=C(c2ccc(Cl)cc2)C1 [Venetoclax] + C=CCn1c(=O)c2cnc(Nc3ccc(N4CCN(C)CC4)cc3)nc2n1-c1cccc(C(C)(C)O)n1 [AZD1775] (first compound max 1 µM, partner max 1 µM) : Bliss excess at minimum -0.03?
Result: no
